- Tested on: Methicillin Resistant Staphylococcus aureus strain USA 300 (NRS384)
- assay notes: MIC, broth micro-dilution technique (CLSI)
- Assay type: cell-based
- conditions used: Staphylococcus aureus, 22 h, read-out: MIC (μg/mL) S. aureus
log10 of MIC overview
attribute measured: log10 of MIC (log10 of the value in µg/mL)

• C[C@H](NC(=O)[C@@H]1CCCN1C(=O)[C@H](C)NC(=O)[C@@H]1Cc2ccc(O)c(c2)-c2cc(ccc2O)[C@H](N(C)C(=O)[C@H](CCCCN)NC(=O)c2ccc(-c3ccc(Cl)cc3)cc2)C(=O)N[C@@H](C)C(=O)N1)C(N)=O = 1.51
• CCCCCCCCCCCCCC(=O)N[C@@H](CCN)C(=O)N(C)[C@@H]1C(=O)N[C@@H](C)C(=O)N[C@H](C(=O)O)Cc2ccc(OCCN)c(c2)-c2cc1ccc2OCCN = -0.72
• CCCCCCCCCCNCCC(=O)N[C@@H](CCCCN)C(=O)N(C)[C@@H]1C(=O)N[C@@H](C)C(=O)N[C@H](C(=O)N[C@@H](C)C(C)=O)Cc2ccc(O)c(c2)-c2cc1ccc2OC1O[C@H](CO)[C@@H](O)[C@H](O)[C@H]1N (stereo partly drawn) = 0.30
• C[C@H](NC(=O)[C@@H]1Cc2ccc(O)c(c2)-c2cc(ccc2O)[C@H](N(C)C(=O)[C@H](CCCCN)NC(=O)c2ccc(-c3ccc(Cl)cc3)cc2)C(=O)N[C@@H](C)C(=O)N1)C(=O)CP(=O)(O)O = 1.51
• C[C@@H]1NC(=O)[C@@H](N(C)C(=O)[C@H](CCCCN)NC(=O)c2ccc(-c3ccc(Cl)cc3)cc2)c2cc(Br)c(O)c(c2)-c2cc(cc(Br)c2O)C[C@@H](C(=O)O)NC1=O = 1.51
• CC(=O)[C@H](C)NC(=O)[C@@H]1Cc2ccc(O)c(c2)-c2cc(ccc2OCCN)[C@H](N(C)C(=O)[C@H](CCCCN)NC(=O)c2ccc(-c3ccc(Cl)cc3)cc2)C(=O)N[C@@H](C)C(=O)N1 = 0.00
• CCCCCCCCCCCC(=O)N[C@@H](CCN)C(=O)N(C)[C@@H]1C(=O)N[C@@H](C)C(=O)N[C@H](C(=O)O)Cc2ccc(OCCN)c(c2)-c2cc1ccc2OCCN = -0.30
• C[C@@H]1NC(=O)[C@@H](N(C)C(=O)[C@H](CCCCN)NC(=O)c2ccc(-c3ccc(Cl)cc3)cc2)c2cc(c3oc(CN)cc3c2)-c2cc(ccc2O)C[C@@H](C(=O)O)NC1=O = 1.04
• C[C@@H]1NC(=O)[C@@H](N(C)C(=O)[C@H](CCCCN)NC(=O)c2ccc(-c3ccc(Cl)cc3)cc2)c2ccc(OCCN)c(c2)-c2cc(ccc2OCCN)C[C@@H](C(=O)NCB(O)O)NC1=O = 0.18
• CCCCCCCCCCCCCC(=O)N(C)[C@@H]1C(=O)N[C@@H](C)C(=O)N[C@H](C(=O)O)Cc2ccc(OCCN)c(c2)-c2cc1ccc2OCCN = 0.90
• CCCCCCCCc1ccc(C(=O)N[C@@H](CCCN)C(=O)N(C)[C@@H]2C(=O)N[C@@H](C)C(=O)N[C@H](C(=O)N[C@@H](C)B3O[C@@H]4C[C@@H]5C[C@@H](C5(C)C)[C@]4(C)O3)Cc3ccc(OC)c(c3)-c3cc2ccc3OC)cc1 = 0.30
• CCCCc1ccc(-c2ccc(C(=O)N[C@@H](CCCN)C(=O)N(C)[C@@H]3C(=O)N[C@@H](C)C(=O)N[C@H](C(=O)O)Cc4ccc(OCCN)c(c4)-c4cc3ccc4OCCN)cc2)cc1 = -0.72
• COC(=O)[C@@H]1CCCN1CC(=O)[C@H](C)NC(=O)[C@@H]1Cc2ccc(O)c(c2)-c2cc(ccc2O)[C@H](N(C)C(=O)[C@H](CCCCN)NC(=O)c2ccc(-c3ccc(Cl)cc3)cc2)C(=O)N[C@@H](C)C(=O)N1 = 1.51
• C[C@H](NCC(=O)[C@H](C)NC(=O)[C@@H]1Cc2ccc(O)c(c2)-c2cc(ccc2O)[C@H](N(C)C(=O)[C@H](CCCCN)NC(=O)c2ccc(-c3ccc(Cl)cc3)cc2)C(=O)N[C@@H](C)C(=O)N1)C(N)=O = 1.51
• CCCCCCCCCCS(=O)(=O)N[C@@H](CCCCN)C(=O)N(C)[C@@H]1C(=O)N[C@@H](C)C(=O)N[C@H](C(=O)O)Cc2ccc(O)c(c2)-c2cc1ccc2O = 1.20
• COC(=O)/C=C/[C@H](C)NC(=O)[C@@H]1Cc2ccc(O)c(c2)-c2cc(ccc2O)[C@H](N(C)C(=O)[C@H](CCCCN)NC(=O)c2ccc(-c3ccc(Cl)cc3)cc2)C(=O)N[C@@H](C)C(=O)N1 = 1.81
• C[C@@H]1NC(=O)[C@@H](N(C)C(=O)[C@H](CCCCN)NC(=O)c2ccc(-c3ccc(Cl)cc3)cc2)c2ccc(O)c(c2)-c2cc(ccc2O)C[C@@H](C(=O)N[C@@H](C)C(=O)N(C)[C@@H]2CCNC2=O)NC1=O = 1.51
